# System tested: T1, recombinant SARS-CoV-2 Spike RBD domain, BQ.1.1 variant (SARS-CoV-2)
# T1 construct: also called RBD BQ.1.1. variant
# Measurement notes: competition ELISA, blocking of RBD binding to ACE2 ectodomain
Items are presented alongside their recorded Blocking %.
Entry rule: numbers only, all in %.

# count of solved cases: 2
SPK002M A1 antibody (antibody, human IgG1, kappa, V domains shown) VH: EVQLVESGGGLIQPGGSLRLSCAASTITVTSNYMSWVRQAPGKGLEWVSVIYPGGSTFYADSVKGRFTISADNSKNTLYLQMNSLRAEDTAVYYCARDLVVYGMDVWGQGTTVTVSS VL: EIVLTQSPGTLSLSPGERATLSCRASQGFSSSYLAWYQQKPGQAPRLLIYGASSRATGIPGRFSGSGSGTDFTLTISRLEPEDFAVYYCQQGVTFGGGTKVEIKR | 97
SPK002M B2 antibody (antibody, human IgG1, kappa, V domains shown) VH: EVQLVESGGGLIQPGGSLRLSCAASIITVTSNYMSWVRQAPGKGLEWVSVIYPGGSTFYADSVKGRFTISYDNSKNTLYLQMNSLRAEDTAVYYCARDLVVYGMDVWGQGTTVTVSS VL: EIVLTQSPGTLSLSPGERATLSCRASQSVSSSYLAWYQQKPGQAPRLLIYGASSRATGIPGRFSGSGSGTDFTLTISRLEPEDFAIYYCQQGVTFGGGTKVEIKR | 95

In the following, a different binder is considered.
Any idea what its Blocking % is? The binder is SPK002M A5 antibody (antibody, human IgG1, kappa, V domains shown) VH: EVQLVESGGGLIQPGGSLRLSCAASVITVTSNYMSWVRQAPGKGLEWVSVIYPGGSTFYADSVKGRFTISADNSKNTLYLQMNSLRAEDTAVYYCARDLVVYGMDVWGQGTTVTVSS VL: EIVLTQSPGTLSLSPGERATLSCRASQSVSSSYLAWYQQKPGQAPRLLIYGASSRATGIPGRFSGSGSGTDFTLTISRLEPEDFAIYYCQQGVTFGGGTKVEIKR 96
